- Test system: Saccharomyces cerevisiae BY4741 SeMeCo community
- Assay Explanation: z-score of subpopulation abundance vs DMSO median, subpopulation auxotrophic for U; higher = larger share of this subpopulation than in DMSO controls
- Experimental Parameters: 10 µM; 24 h; SM minimal medium; subpopulation (auxotrophy): U
Structures can show the parent of a compound that is named as a salt.
Kindly return Condition met if reported z-score of subpopulation abundance is no lower than 0.2; return Condition not met if it is lower.

# Compound, Group
rows = [
    ("Cc1cc(=O)n(-c2ccccc2)n1C [Antipyrine]", "Condition not met"),
    ("C[C@]1(Cn2ccnn2)[C@H](C(=O)O)N2C(=O)C[C@H]2S1(=O)=O", "Condition met"),
    ("C[C@H](Nc1ncnc2nc[nH]c12)c1cc2cccc(Cl)c2c(=O)n1-c1ccccc1", "Condition met"),
    ("CC1(C)S[C@@H]2[C@H](NC(=O)[C@H](N)c3ccc(O)cc3)C(=O)N2[C@H]1C(=O)O [Amoxicillin Sodium]", "Condition not met"),
    ("Clc1ccc(CCC(Cn2ccnc2)Sc2c(Cl)cccc2Cl)cc1 (stereo not drawn)", "Condition not met"),
    ("CCCN[C@H]1CCc2nc(N)sc2C1 [Pramipexole 2HCl Monohydrate]", "Condition not met"),
    ("CCNC(=O)[C@@H]1CCCN1C(=O)[C@H](CCCNC(=N)N)NC(=O)[C@H](CC(C)C)NC(=O)[C@@H](CC(C)C)NC(=O)[C@H](Cc1ccc(O)cc1)NC(=O)[C@H](CO)NC(=O)[C@H](Cc1c[nH]c2ccccc12)NC(=O)[C@H](Cc1c[nH]cn1)NC(=O)[C@@H]1CCC(=O)N1 [Leuprolide Acetate]", "Condition met"),
    ("Cc1onc(-c2ccccc2)c1C(=O)N[C@@H]1C(=O)N2[C@@H]1SC(C)(C)[C@@H]2C(=O)O [Oxacillin sodium monohydrate]", "Condition met"),
    ("Cc1ccc(S(=O)(=O)NC(=O)NN2CC3CCCC3C2)cc1 (stereo not drawn) [Gliclazide]", "Condition not met"),
    ("CN1CCN(c2c(F)cc3c(=O)c(C(=O)O)cn4c3c2OCN4C)CC1", "Condition met"),
    ("C/C(=C\\C(=O)OCCCCCCCCC(=O)O)C[C@@H]1OC[C@H](C[C@@H]2O[C@H]2[C@@H](C)[C@H](C)O)[C@@H](O)[C@H]1O", "Condition met"),
    ("COc1cc([C@@H]2c3cc4c(cc3[C@@H](O[C@@H]3O[C@@H]5CO[C@@H](c6cccs6)O[C@H]5[C@H](O)[C@H]3O)[C@H]3COC(=O)[C@H]23)OCO4)cc(OC)c1O [Teniposide]", "Condition not met"),
    ("CCCCOc1cc(C(=O)NCCN(CC)CC)c2ccccc2n1 [Dibucaine HCl]", "Condition met"),
    ("COc1ccc2cc([C@H](C)C(=O)O)ccc2c1", "Condition not met"),
    ("CC[C@@]1(O)C(=O)OCc2c1cc1n(c2=O)Cc2cc3c(CN(C)C)c(O)ccc3nc2-1 [Topotecan HCl]", "Condition not met"),
    ("Oc1cccc(O)c1", "Condition not met"),
]

###

- Tested on: Saccharomyces cerevisiae BY4741 SeMeCo community
- Assay Explanation: z-score of subpopulation abundance vs DMSO median, subpopulation auxotrophic for HLUM; higher = larger share of this subpopulation than in DMSO controls
- Experimental Parameters: 10 µM; 24 h; SM minimal medium; subpopulation (auxotrophy): HLUM
Counter-ions that a name gives are not always drawn.
A collection of compounds and their measured z-score of subpopulation abundance

# Compound, z-score of subpopulation abundance
rows = [
    ("CC(C[N+](C)(C)C)OC(N)=O (configuration not stated) [Bethanechol chloride]", -0.3),
    ("Cc1nccn1CC1CCc2c(c3ccccc3n2C)C1=O (configuration not stated) [Ondansetron HCl]", -0.89),
    ("CC1(C)S[C@@H]2[C@H](NC(=O)C(C(=O)O)c3ccccc3)C(=O)N2[C@H]1C(=O)O (some centres not stated) [Carbenicillin disodium]", -0.61),
    ("O=C1NC(=O)C(c2ccccc2)(c2ccccc2)N1", -0.04),
    ("CC[C@@H]([C@H](C)O)n1ncn(-c2ccc(N3CCN(c4ccc(OC[C@@H]5CO[C@@](Cn6cncn6)(c6ccc(F)cc6F)C5)cc4)CC3)cc2)c1=O", 12.3),
    ("CC1(C)S[C@@H]2[C@H](NC(=O)COc3ccccc3)C(=O)N2[C@H]1C(=O)O [Penicillin V potassium salt]", -1.08),
    ("CCCCN1CCCC[C@H]1C(=O)Nc1c(C)cccc1C [Levobupivacaine HCl]", -0.43),
]
